# experimental target: human CD33 I47G (human, UniProt P20138 18-364)
# Sequence (P20138 18-364 I47G limits assumed): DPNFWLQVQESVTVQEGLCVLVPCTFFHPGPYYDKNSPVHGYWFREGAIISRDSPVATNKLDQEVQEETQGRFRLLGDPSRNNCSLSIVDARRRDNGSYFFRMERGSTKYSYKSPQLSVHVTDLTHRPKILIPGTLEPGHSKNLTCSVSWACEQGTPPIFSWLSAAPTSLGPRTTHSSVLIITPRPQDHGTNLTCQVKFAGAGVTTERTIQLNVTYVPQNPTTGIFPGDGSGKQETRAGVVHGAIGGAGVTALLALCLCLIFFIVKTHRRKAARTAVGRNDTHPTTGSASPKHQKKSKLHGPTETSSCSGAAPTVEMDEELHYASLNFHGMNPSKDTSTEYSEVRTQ
# experiment: flow cytometry, mutant on cells, IgG
The binders listed here are annotated with their Mean % WT Binding.
Output spec: scalar in % WT binding, unitless text.

Sample answers from the record:
binder | readout unit | Mean % WT Binding
Refmab #3 (antibody, human IgG1, V domains shown, Tested in IgG format; human IgG1 Fc silent (PG-LALA)) VH: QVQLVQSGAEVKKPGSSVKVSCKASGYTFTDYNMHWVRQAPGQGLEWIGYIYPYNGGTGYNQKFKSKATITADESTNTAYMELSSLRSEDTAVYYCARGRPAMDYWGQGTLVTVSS VL: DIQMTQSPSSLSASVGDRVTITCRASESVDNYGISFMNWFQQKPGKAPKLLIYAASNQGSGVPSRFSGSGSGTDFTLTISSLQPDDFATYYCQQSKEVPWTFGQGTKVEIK | % WT binding | 107
Refmab #1 (antibody, human IgG1, V domains shown, Tested in IgG format; human IgG1 (Absolute Antibody hP67.6, Cat. No. Ab00283-10.0); also called hP67.6) VH: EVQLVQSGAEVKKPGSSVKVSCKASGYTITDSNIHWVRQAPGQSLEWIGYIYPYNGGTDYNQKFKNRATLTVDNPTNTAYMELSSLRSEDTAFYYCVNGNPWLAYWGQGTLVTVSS VL: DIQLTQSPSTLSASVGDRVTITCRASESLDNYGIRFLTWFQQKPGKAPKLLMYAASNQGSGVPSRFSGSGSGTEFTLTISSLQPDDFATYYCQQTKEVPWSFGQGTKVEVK | % WT binding | 105

Dear colleague, I am looking for the recorded Mean % WT Binding of the following binder: Refmab #2 (antibody, human IgG1, V domains shown, Tested in IgG format; human IgG1 Fc silent (PG-LALA)) VH: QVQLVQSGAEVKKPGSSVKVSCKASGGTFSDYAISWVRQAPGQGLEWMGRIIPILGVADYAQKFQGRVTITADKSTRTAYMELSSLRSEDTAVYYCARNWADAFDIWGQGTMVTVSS VL: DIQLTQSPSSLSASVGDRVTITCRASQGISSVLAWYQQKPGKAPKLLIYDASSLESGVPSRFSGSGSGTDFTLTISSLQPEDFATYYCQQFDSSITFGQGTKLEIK
3.7
